# Tested on: Candida albicans; note: assay method not described here
# run parameters: 32 ug/mL
# Description: Antifungal activity against Candida albicans ATCC 90028 (CO-ADD:FG_001); MIC in YNB media using NBS plates, by OD630
Potency and affinity values are given separately.
readout: Inhibition (%)

> print(dat)
                                    compound  unit  result.value
 1             C#CCN(C)Cc1cc2cc(O)ccc2n1C.Cl     %          2.77
 2    CC(=O)Nc1nc(Cl)c(C#N)c(-c2ccccc2)c1C#N     %          1.84
 3      C#CCNc1nc(OC)c(C#N)c(-c2ccccc2)c1C#N     %          1.22
 4            Cc1cnc(NC(=O)OC(C)(C)C)c(Br)c1     %          -0.1
 5      CCOC(=O)c1c[nH]c2ccc(OCc3ccccc3)cc12     %          0.34
 6  Nc1c2c(nc3c1C(c1ccccc1)c1ccc4ccccc4c1O3)CCCC2 (stereo not given)     %          0.57
 7  COC(=O)C(=Cc1ccc([N+](=O)[O-])cc1)NC(=O)c1ccccc1     %          0.51
 8               CCCCNNC(=O)c1cc2ccccc2[nH]1     %         -0.51
 9           CCOC(=O)c1c(C)[nH]c2ccc(OC)cc12     %          1.53
10  COc1cc(C2CC2(N)C(=O)O)ccc1O (stereo not given)     %         -0.44

Origin of the recorded values: ChEMBL document CHEMBL4513135
